- experimental_target: human liver cathepsin B (Cat B) (Homo sapiens, UniProt P07858)
pIC50: −log10 of the molar value.

{"columns": ["smiles_data", "pIC50"],
 "data": [
  ["C=C[C@@H]1C[C@]1(NC(=O)[C@@H]1C[C@@H](Oc2cc(-c3ccccc3)nc3cc(OC)ccc23)CN1C(=O)[C@@H](NC(=O)OC(C)(C)C)C(C)C)C(=O)O", "< 4.12"]
]}

====

- experimental_target: HCV NS3 protease (UniProt P26663)
- Sequence (P26663 1027-1206, other chains not shown): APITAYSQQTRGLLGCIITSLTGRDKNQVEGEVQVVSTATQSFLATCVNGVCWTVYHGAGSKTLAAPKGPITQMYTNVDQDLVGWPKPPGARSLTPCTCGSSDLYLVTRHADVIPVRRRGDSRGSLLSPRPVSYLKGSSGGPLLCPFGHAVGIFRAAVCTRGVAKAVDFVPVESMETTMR
- Type: biochemical, HCV genotype 1b
- Set-up: rows headed: IC50 (μM); IC50 (μM)
- study_conditions: Table 8
pIC50: −log10 of the molar value.
quantity_measured: pIC50

{"columns": ["compound", "numeric_result"],
 "data": [
  ["C=CC1CC1(NC(=O)C1CC(Oc2cc(-c3ccccc3)nc3cc(OC)ccc23)CN1C(=O)C(Nc1ccc(C)cc1)C(C)C)C(=O)O (centres unmarked) [compound 822]", 7.30],
  ["C=CC1CC1(NC(=O)C1CC(Oc2cc(-c3ccccc3)nc3cc(OC)ccc23)CN1C(=O)C(Nc1ccc(C#N)cc1)C(C)C)C(=O)O (centres unmarked) [compound 839]", 7.00],
  ["C=CC1CC1(NC(=O)C1CC(Oc2cc(-c3ccccc3)nc3cc(OC)ccc23)CN1C(=O)C(Nc1ccccc1)C(C)C)C(=O)O (centres unmarked) [compound 809]", 7.15],
  ["C=CC1CC1(NC(=O)C1CC(Oc2cc(-c3ccccc3)nc3cc(OC)ccc23)CN1C(=O)C(NC(=O)N(C)C(C)(C)C)C(C)(C)C)C(=O)O (centres unmarked) [compound 858]", 6.69],
  ["C=CC1CC1(NC(=O)C1CC(Oc2cc(-c3ccccc3)nc3cc(OC)ccc23)CN1C(=O)C(NC(=O)OC(C)(C)C)C(C)OC)C(=O)O (centres unmarked) [compound 852]", 7.30],
  ["C=CC1CC1(NC(=O)C1CC(Oc2cc(-c3ccccc3)nc3cc(OC)ccc23)CN1C(=O)C(Nc1cccc(CCO)c1)C(C)C)C(=O)O (centres unmarked) [compound 855]", 7.12],
  ["C=CC1CC1(NC(=O)C1CC(Oc2cc(-c3ccccc3OC)nc3cc(OC)ccc23)CN1C(=O)C(NC(=O)OC(C)(C)C)C(C)(C)C)C(=O)O (centres unmarked) [compound 823]", 6.97],
  ["C=CC1CC1(NC(=O)C1CC(Oc2cc(-c3ccccc3)nc3cc(OC)ccc23)CN1C(=O)C(NC(=O)C(O)C1CCCCC1)C(C)(C)C)C(=O)O (centres unmarked) [compound 802]", 7.62],
  ["C=CC1CC1(NC(=O)C1CC(Oc2cc(-c3ccccc3)nc3cc(OC)ccc23)CN1C(=O)C(NC(=O)COc1c(C)cccc1C)C(C)(C)C)C(=O)O (centres unmarked) [compound 810]", 6.35],
  ["C=CC1CC1(NC(=O)C1CC(Oc2cc(-c3ccccc3)nc3cc(OC)ccc23)CN1C(=O)C(CC(C)C)NC(=O)OC(C)(C)C)C(=O)O (centres unmarked) [compound 848]", 7.03],
  ["C=CC1CC1(NC(=O)C1CC(Oc2cc(-c3ccccc3)nc3cc(OC)ccc23)CN1C(=O)C(NC(=O)NC(C)(C)CO)C(C)(C)C)C(=O)O (centres unmarked) [compound 835]", 8.15],
  ["C=CC1CC1(NC(=O)C1CC(Oc2cc(-c3ccccc3)nc3cc(OC)ccc23)CN1C(=O)C(NC(=O)OCC(C)(C)N)C(C)(C)C)C(=O)O (centres unmarked) [compound 866]", 6.70],
  ["C=CC1CC1(NC(=O)C1CC(Oc2cc(-c3ccc(C)cc3)nc3cc(OC)ccc23)CN1C(=O)C(NC(=O)OC(C)(C)C)C(C)(C)C)C(=O)O (centres unmarked) [compound 843]", 7.28],
  ["C=CC1CC1(NC(=O)C1CC(Oc2cc(-c3ccccc3)nc3cc(OC)ccc23)CN1C(=O)C(NC(=O)OC(C)(C)C)C(C)OC)C(=O)O (centres unmarked) [compound 851]", 6.92],
  ["C=CC1CC1(NC(=O)C1CC(Oc2cc(-c3ccccc3)nc3cc(OC)ccc23)CN1C(=O)C(Nc1cccc(-c2ccccc2)c1)C(C)C)C(=O)O (centres unmarked) [compound 854]", 6.43],
  ["C=CC1CC1(NC(=O)C1CC(Oc2cc(-c3ccccc3)nc3cc(OC)ccc23)CN1C(=O)C(NC(=O)NCc1ccccc1)C(C)(C)C)C(=O)O (centres unmarked) [compound 817]", 7.77],
  ["C=CC1CC1(NC(=O)C1CC(Oc2cc(-c3ccccc3)nc3cc(OC)ccc23)CN1C(=O)C(NC(=S)NC(C)(C)C)C(C)(C)C)C(=O)O (centres unmarked) [compound 813]", 7.70],
  ["C=CC1CC1(NC(=O)C1CC(Oc2cc(-c3ccccc3)nc3cc(OC)ccc23)CN1C(=O)C(Nc1ccc2c(c1)OCO2)C(C)C)C(=O)O (centres unmarked) [compound 846]", 6.98],
  ["C=CC1CC1(NC(=O)C1CC(Oc2cc(-c3ccccc3)nc3cc(OC)ccc23)CN1C(=O)C(NC(=O)OC1CCCC1)C(C)(C)C)C(=O)O (centres unmarked) [compound 869]", 7.85],
  ["C=CC1CC1(NC(=O)C1CC(Oc2cc(-c3ccccc3)nc3cc(OC)ccc23)CN1C(=O)C(Nc1ccccc1F)C(C)C)C(=O)O (centres unmarked) [compound 864]", 6.35],
  ["C=CC1CC1(NC(=O)C1CC(Oc2cc(-c3ccccc3)nc3cc(OC)ccc23)CN1C(=O)C(Nc1cccc(CC#N)c1)C(C)C)C(=O)O (centres unmarked) [compound 861]", 6.77],
  ["C=CC1CC1(NC(=O)C1CC(Oc2cc(-c3ccccc3)nc3cc(OC)ccc23)CN1C(=O)C(NC(=O)OC)C(C)(C)C)C(=O)O (centres unmarked) [compound 830]", 6.95],
  ["C=CC1CC1(NC(=O)C1CC(Oc2cc(-c3cccc(Cl)c3)nc3cc(OC)ccc23)CN1C(=O)C(NC(=O)OC(C)(C)C)C(C)(C)C)C(=O)O (centres unmarked) [compound 815]", 6.80]
]}
